For each record, write down the corresponding CPE inhibition.
Experiment: inhibitors of DENV2 cytopathic effect, primary screen, cell-based, plate reader, single concentration (AID 651640);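 further: 0% = median of neutral control wells and 100% = median of positive control wells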
Details: DENV2-infected cells, cytopathic effect rescue, at 9.99 µM, active compounds read high
Hit rate of the full screen: of about 350,000 compounds, about 6,000 (1.7%) were called active. Another 5% or so got no clear call; they are omitted. This is one part of a sample in which actives are shown more often than they occur.

[Q] State its CPE inhibition for this compound: `C[C@@H]1CN([C@H](C)CO)C(=O)c2cc(NS(=O)(=O)c3cccs3)ccc2O[C@@H](C)CCCCO[C@@H]1CN(C)S(=O)(=O)c1cccs1`
[A] -4.08% (inactive)

[Q] State its CPE inhibition for this compound: `COc1cccc(S(=O)(=O)N(C)C[C@@H]2Oc3ncc(-c4cccc(C(=O)N(C)C)c4)cc3C(=O)N([C@H](C)CO)C[C@@H]2C)c1`
[A] 9.65% (inactive)

[Q] State its CPE inhibition for this compound: `C[C@@H]1CCCCO[C@H](CN(C)S(=O)(=O)c2ccc(Cl)cc2)[C@H](C)CN([C@@H](C)CO)C(=O)c2cc(NS(=O)(=O)c3cccs3)ccc2O1`
[A] 63.8% (active)

[Q] State its CPE inhibition for this compound: `C[C@@H]1CCCCO[C@H](CN(C)S(=O)(=O)c2cccs2)[C@@H](C)CN([C@@H](C)CO)C(=O)c2cc(NC(=O)Nc3ccc4c(c3)OCO4)ccc2O1`
[A] 2.44% (inactive)

----------
Assay: inhibitors of DENV2 cytopathic effect, primary screen, cell-based, plate reader, single concentration (AID 651640);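 further: 0% = median of neutral control wells and 100% = median of positive control wells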
Conditions: DENV2-infected cells, cytopathic effect rescue, at 9.99 µM, active compounds read high
About 6,000 (1.7%) of roughly 350,000 compounds were called active. About 5% were inconclusive and are not listed. Shown is part of a subset that was picked to be rich in actives.
Test Readout: CPE inhibition (%)
Report the figure in % without appending any unit label.

[Q] State its CPE inhibition for this compound: `O=C(C[C@H]1C[C@H]2c3cc(NC(=O)Cc4ccncc4)ccc3O[C@H]2[C@@H](CO)O1)NCc1cccc(F)c1`
[A] -1.57

[Q] State its CPE inhibition for this compound: `COc1ccc2c3c([nH]c2c1)[C@H](CO)N(C(=O)Nc1ccc(F)cc1)CC31CN(S(=O)(=O)c2cccc(F)c2)C1`
[A] 1.82

[Q] State its CPE inhibition for this compound: `CCCC(=O)Nc1ccc2c(c1)OC[C@H](C)N(C(=O)C1CCCC1)C[C@@H](C)[C@H](OC)CN(C)C2=O`
[A] -8.69

[Q] State its CPE inhibition for this compound: `CO[C@H](CN(C)S(=O)(=O)c1ccc(C)cc1)[C@@H](C)CN(Cc1ccccc1Cl)[C@@H](C)CO`
[A] -6.58

[Q] State its CPE inhibition for this compound: `O=C(N[C@H]1CC[C@H](CCn2cc(-c3ccccc3F)nn2)O[C@@H]1CO)c1ccc2c(c1)OCO2`
[A] 6.43

[Q] State its CPE inhibition for this compound: `CCc1cnc(N2[C@H](C#N)[C@H](c3ccc(C4=CCCC4)cc3)[C@@H]2CO)s1`
[A] 42.6

[Q] State its CPE inhibition for this compound: `CNC(=O)C[C@@H]1CC[C@@H]2[C@@H](COc3ccc(NC(=O)Cc4cccs4)cc3C(=O)N2C)O1`
[A] -1.22

[Q] State its CPE inhibition for this compound: `COc1cccc(S(=O)(=O)N(C)C[C@@H]2Oc3cc(C4=CCCCC4)ccc3S(=O)(=O)N([C@H](C)CO)C[C@H]2C)c1`
[A] 2.02

[Q] State its CPE inhibition for this compound: `O=S(=O)(N[C@@H]1CC[C@@H](CCn2cc(-c3ccccn3)nn2)O[C@@H]1CO)c1cccc(Cl)c1`
[A] 14.3

[Q] State its CPE inhibition for this compound: `CO[C@@H]1CN(C)C(=O)c2ccc(NC(=O)C3CC3)cc2OC[C@@H](C)N(CC2CCOCC2)C[C@H]1C`
[A] 0.64

[Q] State its CPE inhibition for this compound: `COC(=O)[C@]12C[C@H](CC(=O)NCc3ccc(C)o3)C(=O)N(CCC3=CCCCC3)C1=C[C@H](C(C)(C)C)O[C@@H]2C`
[A] 13.9

[Q] State its CPE inhibition for this compound: `CO[C@H]1CN(C)C(=O)c2ccc(NS(C)(=O)=O)cc2OC[C@H](C)N(C(=O)C2CCC2)C[C@H]1C`
[A] -2.45

[Q] State its CPE inhibition for this compound: `N#C[C@@H]1[C@@H](c2ccc(C3=CCCC3)cc2)[C@@H](CO)N1C(=O)C1CCCC1`
[A] -3.68

[Q] State its CPE inhibition for this compound: `CCCC(=O)Nc1ccc2c(c1)C(=O)N(C)C[C@@H](OC)[C@H](C)CN(C(C)=O)[C@H](C)CO2`
[A] 4.44

[Q] State its CPE inhibition for this compound: `Cc1noc(C)c1NC(=O)N(C)C[C@@H]1Oc2cc(C#CCC(C)C)ccc2S(=O)(=O)N([C@H](C)CO)C[C@@H]1C`
[A] 16.2

[Q] State its CPE inhibition for this compound: `CCC(=O)N1C[C@H](C)[C@H](OC)CN(C)C(=O)c2ccc(NC(=O)Nc3ccccc3)cc2OC[C@H]1C`
[A] -7.71

[Q] State its CPE inhibition for this compound: `CO[C@H]1CN(C)C(=O)c2ccc(NC(=O)C3CC3)cc2OC[C@H](C)N(C(=O)CN2CCOCC2)C[C@@H]1C`
[A] -2.69

----------
Assay: inhibitors of DENV2 cytopathic effect, primary screen, cell-based, plate reader, single concentration (AID 651640);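 further: 0% = median of neutral control wells and 100% = median of positive control wells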
Settings: DENV2-infected cells, cytopathic effect rescue, at 9.99 µM, active compounds read high
Among all 350,000 compounds or so, about 6,000 (1.7%) were called active. Roughly 5% stayed inconclusive and do not appear here. The entries come from a sample that favours actives as a whole.
For each record, write down the corresponding CPE inhibition.
Report the figure in % without appending any unit label.

[Q] State its CPE inhibition for this compound: `CCCNC(=O)Nc1ccc2c(c1)C(=O)N(C)C[C@@H](OC)[C@H](C)CN(CCC)[C@@H](C)CO2`
[A] 3.79

[Q] State its CPE inhibition for this compound: `COc1ccccc1C(=O)Nc1ccc2c(c1)OC[C@@H](C)NC[C@H](C)[C@@H](OC)CN(C)C2=O`
[A] -3.53

[Q] State its CPE inhibition for this compound: `COc1ccc(NC(=O)Nc2ccc3c(c2)C(=O)N([C@@H](C)CO)C[C@H](C)[C@@H](CN(C)Cc2ccc4c(c2)OCO4)O3)cc1`
[A] 31.5

[Q] State its CPE inhibition for this compound: `C[C@@H]1CN([C@@H](C)CO)C(=O)c2cc(NC(=O)Nc3ccc(C(F)(F)F)cc3)ccc2O[C@@H](C)CCCCO[C@H]1CN(C)C(=O)c1ccccc1`
[A] 25.6

[Q] State its CPE inhibition for this compound: `C[C@H](CO)N1C[C@H](C)[C@@H](CN(C)Cc2ccncc2)Oc2ccc(NC(=O)Nc3ccccc3)cc2C1=O`
[A] 7.94

[Q] State its CPE inhibition for this compound: `COCC#Cc1cnc2c(c1)C(=O)N([C@@H](C)CO)C[C@@H](C)[C@@H](CN(C)C(=O)Nc1ccc(OC)cc1)O2`
[A] -9.58

[Q] State its CPE inhibition for this compound: CCCCc1nc2cc(C(=O)N3CCCCC3CCO)ccc2o1 (stereo not drawn)
[A] 6.93

[Q] State its CPE inhibition for this compound: CC1(C)S[C@@H]2[C@H](NC(=O)COc3ccccc3)C(=O)N2C1C(=O)OCc1ccccc1 (stereo partly drawn)
[A] 9.26

[Q] State its CPE inhibition for this compound: `C[C@@H]1CN([C@@H](C)CO)C(=O)c2cc(NC(=O)Nc3ccc(C(F)(F)F)cc3)ccc2O[C@@H]1CN(C)Cc1ccncc1`
[A] 31.1

[Q] State its CPE inhibition for this compound: `C[C@H](CO)N1C[C@H](C)[C@@H](CN(C)Cc2ccc3c(c2)OCO3)Oc2ccc(NC(=O)Nc3ccc(F)cc3)cc2C1=O`
[A] -6.58

[Q] State its CPE inhibition for this compound: `CCC1(CC)NC(=O)N(Cc2nc3ccccc3s2)C1=O`
[A] -2.84

[Q] State its CPE inhibition for this compound: c1ccc(-c2ccc(C3[C@@H]4CN(Cc5cccnc5)C[C@H]3N4)cc2)cc1 (stereo partly drawn)
[A] -24.3

[Q] State its CPE inhibition for this compound: `C[C@@H]1CN([C@@H](C)CO)C(=O)c2cc(-c3ccccc3F)cnc2O[C@H]1CN(C)C(=O)C1CC1`
[A] -2.29

[Q] State its CPE inhibition for this compound: `O=C(NC[C@H]1CC[C@@H]2[C@@H](CN2S(=O)(=O)c2ccccc2F)O1)C1CCCCC1`
[A] -10.6

[Q] State its CPE inhibition for this compound: `COc1ccc(S(=O)(=O)Nc2ccc3c(c2)CC(=O)N([C@@H](C)CO)C[C@@H](C)[C@@H](CN(C)C(=O)Nc2c(C)noc2C)O3)cc1`
[A] 29.8

[Q] State its CPE inhibition for this compound: `C[C@@H]1CN([C@@H](C)CO)C(=O)c2cc(NC(=O)NC3CCCCC3)ccc2O[C@@H](C)CCCCO[C@H]1CN(C)Cc1ccccc1`
[A] 1.48

[Q] State its CPE inhibition for this compound: `COc1cccc(C(=O)Nc2ccc3c(c2)C(=O)N(C)[C@H]2CC[C@H](CC(=O)N[C@@H](C)c4ccccc4)O[C@H]2CO3)c1`
[A] -3.06

[Q] State its CPE inhibition for this compound: `CCCNC(=O)N1C[C@@H](O)COC[C@@H]2O[C@@H](CC(=O)O)CC[C@H]21`
[A] 5.1

[Q] State its CPE inhibition for this compound: `CO[C@H]1CN(C)C(=O)c2ccc(NC(=O)Nc3c(C)noc3C)cc2OC[C@@H](C)NC[C@H]1C`
[A] 1.98

[Q] State its CPE inhibition for this compound: `Cc1ccccc1CN(C)C[C@H]1OCc2cn(nn2)CCCC(=O)N([C@@H](C)CO)C[C@H]1C`
[A] -8.88

[Q] State its CPE inhibition for this compound: `Cn1cnc(S(=O)(=O)N2C[C@H](O)COC[C@@H]3O[C@H](CC(=O)NCc4cccc(F)c4)CC[C@H]32)c1`
[A] -0.815

[Q] State its CPE inhibition for this compound: `COc1ccc(CN(C)C[C@@H]2Oc3ccc(NC(=O)Nc4ccc(OC)cc4)cc3C(=O)N([C@H](C)CO)C[C@H]2C)cc1`
[A] -3.17

[Q] State its CPE inhibition for this compound: `C[C@@H]1CCCCO[C@@H](CN(C)Cc2ccc(C(=O)O)cc2)[C@@H](C)CN([C@@H](C)CO)C(=O)c2cc(NC(=O)Nc3ccc(C(F)(F)F)cc3)ccc2O1`
[A] 21.1
